# System: A498 renal
# ASSAY_EXPLANATION: NCI tumour cell line growth inhibition, 48 h
What TGI was measured for each of the following?

*Q* Please give measured TGI of the following entry: `Cc1cccc(NC(Nc2cccc(C)c2)=C(C(Cl)=C(Cl)Cl)[N+](=O)[O-])c1`
*A* > 86 µM

*Q* Report TGI for `O=S1(=O)c2ccccc2NC(=S)N1c1ccccc1`
*A* > 94.5 µM

*Q* Recall and state the measured TGI for `O=c1c2ccccc2c2c3c1cccc3c1cccc3c(=O)c4ccccc4c2c31` .
*A* > 100 µM

*Q* Report measured TGI; entry is `Brc1ccc2c(c1)-c1nc3c(cc1CC2)CCc1ccc(Br)cc1-3`
*A* > 100 µM

*Q* Provide only the value of recorded TGI for `CC(=O)[CH-]C(C)=O.CC(=O)[CH-]C(C)=O.N=CC=N.[Sn+2]`
*A* 22.4 µM

*Q* Please give the documented TGI of `Cc1sc(C)c(-c2ccc(CO)o2)c1-c1ccc(CO)o1`
*A* 0.0973 µM

*Q* Fill in reported TGI for this entry: C=C1CC2C(=O)N(c3ccccc3)C(=O)C2CC1n1[nH]c(=O)n(Cc2ccccc2)c1=O (stereo not drawn)
*A* > 100 µM

*Q* State, in one line, measured TGI of `COc1ccc2c(-c3cc4ccccc4o3)cc(=O)oc2c1`
*A* > 92 µM

*Q* Consider the compound `Nc1ccc(SC23CC4CC(CC(C4)C2)C3)cc1` . State its measured TGI.
*A* > 100 µM

*Q* In one line, give reported TGI of the entry CC1OC(n2cc(F)c(=O)[nH]c2=O)C(O[Si](C)(C)C(C)(C)C)C1O[Si](C)(C)C(C)(C)C (stereo not drawn) .
*A* 27.3 µM

*Q* Quickly give me recorded TGI for `Cc1ccc([N+](=O)[O-])c2c(NCCCN(C)C)ccnc12`
*A* > 100 µM

*Q* Return TGI (reported value) for this compound: `N#CC(C#N)=Cc1cccc(Oc2ccccc2)c1`
*A* > 100 µM

*Q* Fill in reported TGI for this entry: `Oc1ccc(Cc2ccccc2)c2cccnc12`
*A* > 100 µM

*Q* Entry CCOC(=O)C(C)NC(=O)N(C)C12CC3CC(CC(C3)C1)C2 (stereo not drawn) needs its TGI filled in; supply it.
*A* 442 µM

*Q* Retrieve TGI measured for `O=C(NCCCNCCCCNCCCNC(=O)C(F)(F)F)C(F)(F)F` and print it.
*A* > 100 µM

*Q* Write down TGI measured for item `Nc1nc(Nc2ccc(OCc3cccc(F)c3)cc2)c2c(n1)[nH]c1ccc(O)cc12`
*A* 33.1 µM

*Q* Look up TGI of CCOC(=O)C(NC(=O)c1ccc(N=NN(C)C)cc1)C(C)C (stereo not drawn) and report it.
*A* > 100 µM

*Q* Consider the compound `O=C1N[C@@H](O)[C@@H]2ON=C(c3ccccc3)[C@H]12` . State its measured TGI.
*A* > 100 µM

*Q* Please give measured TGI of the following entry: `COc1ccc2c(c1)[C@@]13CCN4CC5=CCO[C@H]6CC(=O)N2[C@H]1[C@H]6[C@H]5C[C@H]43`
*A* > 100 µM

*Q* Using known records, supply TGI for `FC(F)=C(c1ccc(-c2ccc(Cl)cc2)cc1)C(F)(F)F`
*A* 31.9 µM

*Q* Respond only with TGI recorded for COc1ccc2c(c1)C=CC(C#N)N2C(=O)c1ccccc1 (stereo not drawn)
*A* 0.0825 µM

*Q* Answer with the recorded TGI of `CC[P+](C#Cc1ccccc1)(c1ccccc1)c1ccccc1` only.
*A* 21.2 µM

*Q* Report TGI, nothing else, for this compound: `CCCSc1cc(Cl)nc(N)n1`
*A* > 100 µM

###

# Test system: U251 CNS
# ASSAY_EXPLANATION: NCI tumour cell line growth inhibition, 48 h
READOUT_KIND: TGI (µM)
# value in µM; strip the unit string

*Q* # return recorded TGI for input Cc1ccc(-n2cc(-c3ccc(Cl)cc3)c3c2N=CN2NC(c4ccco4)=NC32)cc1 (stereo not given)
*A* 20.8

*Q* Determine from records and report TGI for `Clc1ccc(OCc2nnc3n2N=C(c2ccc(Cl)cc2Cl)CS3)c(Cl)c1`
*A* 46.8

*Q* Indicate its recorded TGI; the compound in question is `O=C(N/N=C/c1ccc(Cl)cc1Cl)c1ccccc1Nc1cccc(C(F)(F)F)c1`
*A* 9.64

*Q* Give TGI for the following compound: COc1ccc(C2C(C#N)=C(N)OC3=C2CCCc2ccc(F)cc23)cc1OC (stereo not given)
*A* 35.9

###

For each entry below, report its TGI value.
# Tested on: SK-MEL-5 melanoma
# ASSAY_EXPLANATION: NCI tumour cell line growth inhibition, 48 h
Kindly provide the numeric value in µM only, without the unit symbol.

*Q* Please report the measured TGI for `CCN(CCO)CCNc1ccc(C)c2sc3cc(Cl)ccc3c(=O)c12` tested on SK-MEL-5 melanoma.
*A* 2.88

*Q* GET TGI where system = SK-MEL-5 melanoma and item = `Cc1cccc(NC(Nc2cccc(C)c2)=C(C(Cl)=C(Cl)Cl)[N+](=O)[O-])c1`
*A* 19.6

*Q* Please look at COc1ccc(C2C(C#N)=C(N)OC3=C2CCCc2ccc(F)cc23)cc1OC (centres undefined) and tell me its recorded TGI on SK-MEL-5 melanoma.
*A* 27.9

*Q* Give TGI for COC(=O)c1cc2c3c(cc(NCCN)c2[nH]1)N(C(=O)c1cc2cc(OC)c(OC)c(OC)c2[nH]1)CC3CCl (centres undefined) tested on SK-MEL-5 melanoma.
*A* 0.165

*Q* Tell me its TGI on SK-MEL-5 melanoma: `COc1cc(-c2cn(C)c(=O)c(C)c2C)cc(OC)c1CN1CC[C@H](N2CCN(c3ccc(N[C@H]4CCC(=O)NC4=O)cc3F)CC2)C(F)(F)C1`
*A* 18.8

*Q* // fetch TGI for `Cc1cc(C)nc(NS(=O)(=O)c2ccc(Nc3c4ccccc4nc4c(C(=O)NCCO)cccc34)cc2)n1` ; system: SK-MEL-5 melanoma
*A* 36.6

*Q* Report TGI from SK-MEL-5 melanoma testing of `CCOC(=O)[C@@H](C)C[C@H](Cc1ccccc1)NC(=O)c1csc([C@@H](C[C@H](C(C)C)N(C)C(=O)[C@@H](NC(=O)[C@H]2CCCCN2C)C(C)(C)C)OC(C)=O)n1`
*A* 0.00254

*Q* Look up and report measured TGI (SK-MEL-5 melanoma) for the following compound: `COc1ccc(CCCCl)c(C2=NCCc3ccccc32)c1`
*A* 45

*Q* Report value: TGI, system: SK-MEL-5 melanoma, compound: FC(F)(F)c1ccc2c(Nc3cccc(C4CC(c5ccccc5)=NN4c4ccc(Cl)cc4)c3)ccnc2c1 (centres undefined)
*A* 26.5

*Q* With SK-MEL-5 melanoma as the test system, provide measured TGI for this compound: `COc1ccc(-c2cc(-c3cc(Cl)ccc3Cl)nc3nc(=S)[nH]c(N)c23)cc1`
*A* 94.6

*Q* GET TGI where system = SK-MEL-5 melanoma and item = `CC(C)(C)c1ccc2c(c1)OCc1n[nH]c(n1)COc1cc(C(C)(C)C)ccc1OCCOCCO2`
*A* 4.68

*Q* State recorded TGI with SK-MEL-5 melanoma, entry `Oc1ccc(Cc2ccccc2)c2cccnc12` , no comment.
*A* 10.8

*Q* Print SK-MEL-5 melanoma TGI for COC(=O)C(Cc1ccccc1)N/C=C\C(=O)c1ccc(Cl)cc1 (centres undefined) .
*A* 33.5

*Q* Provide measured TGI on SK-MEL-5 melanoma for CC1=CCC[C@H]2[C@](C)(CC3=CC(=O)C4SCCSC4C3=O)[C@@H](C)CC[C@]12C (some centres undefined) please.
*A* 26.7

*Q* For SK-MEL-5 melanoma, give the measured TGI of the entry `FC(F)=C(c1ccc(-c2ccc(Cl)cc2)cc1)C(F)(F)F`
*A* 32.9

*Q* Write TGI of `NC(N)=N/N=C/c1c(-c2ccccn2)nc2sc(Cl)cn12` ; system used: SK-MEL-5 melanoma
*A* 15.4

*Q* Fill in TGI for `COc1cc2c3c(n(CCCN4CCC(N)CC4)c(=O)c2cc1OC)-c1cc2c(cc1C3=O)OCO2` tested with SK-MEL-5 melanoma.
*A* 8.47

*Q* State TGI (SK-MEL-5 melanoma) of `CN1CCN(Cc2ccc(NC(=O)c3ccc(C(C)(C)C)c(C#Cc4cnc5cccnn45)c3)cc2C(F)(F)F)CC1` .
*A* 4.86

###

# Tested on: UACC-62 melanoma
# ASSAY_EXPLANATION: NCI tumour cell line growth inhibition, 48 h; in the data active = GI50 below about 0.43 µM; inactive = the rest
Valid outcomes are listed here; reply with one: active, inactive

*Q* Per the assay record, what outcome was assigned to `c1cc[c]([Sn]([S]c2cccc3cccnc23)([c]2ccccc2)[c]2ccccc2)cc1` ?
*A* active

*Q* Which outcome was assigned to `COC(=O)c1c(O)ccc2[nH]c(C)c(C#N)c12` in this test?
*A* inactive

*Q* What call does the record list for `CC1(C)OC(=O)C=C([O-])O1.CC1(C)OC(=O)C=C([O-])O1.O=c1c(O)c(-c2ccc([O-])cc2[O-])oc2cc(O)cc(O)c12.[Ti+4]` ?
*A* inactive

*Q* I would be grateful if you could indicate the recorded call for `CCN(Cc1c(F)cccc1F)c1ccc(CO)c(Cl)c1` .
*A* active

*Q* Record request — test call for `Cc1noc(C)c1-c1ccc2[nH]c(=O)n3c2c1OC[C@@H]3c1ccccn1`
*A* active

*Q* For CC(=O)n1c(-c2ccc(Cl)cc2)nc2c(c1=O)C(c1ccc(Cl)cc1)c1sc3c(Cl)cccc3c1O2 (stereo not drawn) , what call appears in the results of this test?
*A* active

*Q* Give the logged outcome of this assay for the following molecule: `Cc1c(C(=O)NN)nnn1-c1ccnc2c(C(F)(F)F)cccc12`
*A* inactive

*Q* Could you kindly confirm the outcome this assay logged for `COc1cc2c3c(n(CCCN4CCC(N)CC4)c(=O)c2cc1OC)-c1cc2c(cc1C3=O)OCO2` ?
*A* inactive

*Q* Lab log entry: `CNC(=O)c1ccc(-c2cnc3ncc(Cc4ccc5ncccc5c4)n3n2)cc1F` — outcome as called in the assay?
*A* inactive

*Q* What outcome does the record of this test show for `C[C@H]1CCC/C=C/[C@@H]2C[C@H](N)C[C@H]2[C@H](O)/C=C/C(=O)O1` ?
*A* inactive

*Q* Which outcome was assigned to COC(=O)NC/C=C\c1nc(CC/C=C\C(=O)OC2CC3CC(=O)O[C@@H](/C=C/CC(C)C)C[C@@H]4CCC(C)C(C[C@@H](OC)CC(C2)O3)O4)co1 (stereo partly drawn) in this test?
*A* active

*Q* Tell me the recorded outcome of this test for `C=C1C(=O)O[C@H]2[C@H]1CC/C(COC(=O)c1cc3cc(OC)ccc3[nH]1)=C\CC[C@@]1(C)O[C@@H]21` .
*A* inactive

*Q* How was `CNC(=O)c1cn(C[C@H](F)CCc2ccc(NC(=O)Cc3cc(OC4CC(F)(F)C4)cc(C)n3)nn2)nn1` classified in this test?
*A* inactive
